Target: human α1H T-type channels (Homo sapiens)
Construct: expressed in transfected cells; host or cells: HEK 293
Sequence (O95180 whole entry): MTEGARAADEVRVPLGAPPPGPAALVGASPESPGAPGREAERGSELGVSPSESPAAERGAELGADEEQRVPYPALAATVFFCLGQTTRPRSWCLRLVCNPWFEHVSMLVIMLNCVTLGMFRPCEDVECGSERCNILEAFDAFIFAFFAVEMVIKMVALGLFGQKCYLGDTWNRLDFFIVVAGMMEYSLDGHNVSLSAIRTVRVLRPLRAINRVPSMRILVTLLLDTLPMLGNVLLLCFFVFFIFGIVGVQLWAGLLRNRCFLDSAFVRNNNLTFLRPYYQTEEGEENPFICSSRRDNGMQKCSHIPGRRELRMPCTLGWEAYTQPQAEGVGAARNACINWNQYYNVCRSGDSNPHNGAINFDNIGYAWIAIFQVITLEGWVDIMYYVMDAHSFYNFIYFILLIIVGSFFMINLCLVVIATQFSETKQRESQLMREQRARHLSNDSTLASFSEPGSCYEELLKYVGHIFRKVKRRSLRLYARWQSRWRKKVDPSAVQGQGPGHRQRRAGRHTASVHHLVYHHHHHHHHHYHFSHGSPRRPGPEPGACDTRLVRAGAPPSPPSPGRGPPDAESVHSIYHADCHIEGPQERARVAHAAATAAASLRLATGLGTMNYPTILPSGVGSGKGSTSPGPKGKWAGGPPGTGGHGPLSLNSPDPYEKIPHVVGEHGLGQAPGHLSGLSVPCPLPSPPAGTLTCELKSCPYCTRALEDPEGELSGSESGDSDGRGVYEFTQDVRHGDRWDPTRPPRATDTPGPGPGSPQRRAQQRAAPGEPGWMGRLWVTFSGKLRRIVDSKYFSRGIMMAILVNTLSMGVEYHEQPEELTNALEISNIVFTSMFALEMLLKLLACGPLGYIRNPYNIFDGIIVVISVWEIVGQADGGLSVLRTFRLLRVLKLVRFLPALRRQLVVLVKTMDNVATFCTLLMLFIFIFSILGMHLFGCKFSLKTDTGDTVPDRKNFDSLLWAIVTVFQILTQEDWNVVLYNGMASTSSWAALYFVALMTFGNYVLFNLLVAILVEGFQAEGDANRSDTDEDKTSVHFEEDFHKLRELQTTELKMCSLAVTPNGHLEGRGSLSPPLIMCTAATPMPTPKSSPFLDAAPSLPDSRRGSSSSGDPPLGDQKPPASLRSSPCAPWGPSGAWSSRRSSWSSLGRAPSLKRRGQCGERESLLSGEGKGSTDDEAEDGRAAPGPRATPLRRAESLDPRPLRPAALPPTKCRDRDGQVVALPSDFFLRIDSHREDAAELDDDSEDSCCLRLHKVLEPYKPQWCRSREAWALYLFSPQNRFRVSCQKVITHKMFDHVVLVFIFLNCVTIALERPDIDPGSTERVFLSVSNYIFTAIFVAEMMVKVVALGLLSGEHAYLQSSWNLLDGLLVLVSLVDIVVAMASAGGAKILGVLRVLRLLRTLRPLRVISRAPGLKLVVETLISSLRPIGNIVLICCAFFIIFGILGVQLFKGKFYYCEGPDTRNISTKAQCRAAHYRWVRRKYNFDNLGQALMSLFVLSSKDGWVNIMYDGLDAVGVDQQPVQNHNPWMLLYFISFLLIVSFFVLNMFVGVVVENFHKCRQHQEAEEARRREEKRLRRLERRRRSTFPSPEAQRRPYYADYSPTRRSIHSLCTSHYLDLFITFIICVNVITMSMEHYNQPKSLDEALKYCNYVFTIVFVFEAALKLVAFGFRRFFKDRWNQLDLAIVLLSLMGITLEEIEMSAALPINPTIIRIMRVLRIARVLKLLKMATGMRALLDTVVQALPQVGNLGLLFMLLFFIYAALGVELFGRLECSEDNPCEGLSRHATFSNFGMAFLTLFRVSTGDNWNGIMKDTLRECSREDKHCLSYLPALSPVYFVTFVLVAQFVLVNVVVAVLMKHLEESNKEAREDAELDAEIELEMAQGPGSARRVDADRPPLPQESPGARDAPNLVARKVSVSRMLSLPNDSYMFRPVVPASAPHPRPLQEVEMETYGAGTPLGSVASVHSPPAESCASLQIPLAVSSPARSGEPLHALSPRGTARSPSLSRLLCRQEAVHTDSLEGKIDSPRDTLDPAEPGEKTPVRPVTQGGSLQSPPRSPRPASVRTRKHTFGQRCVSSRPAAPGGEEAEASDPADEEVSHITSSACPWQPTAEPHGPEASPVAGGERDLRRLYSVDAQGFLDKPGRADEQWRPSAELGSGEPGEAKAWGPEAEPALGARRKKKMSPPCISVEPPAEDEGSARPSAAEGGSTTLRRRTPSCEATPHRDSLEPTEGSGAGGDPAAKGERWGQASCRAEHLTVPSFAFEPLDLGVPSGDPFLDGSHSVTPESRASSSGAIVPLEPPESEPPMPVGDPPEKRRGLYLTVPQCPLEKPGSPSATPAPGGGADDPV
Assay: T-type calcium channel block, whole cell patch clamp in HEK cells (α1H)
Format: cell-based
Settings: HEK cells, patch clamp, mainly non-inactivated protocol; values above 10 μM shown as 10 μM; read-out: T-type Calcium Channel Block α1H IC50
ENDPOINT_NAME: pIC50
One number for each entry, as −log10 of the molar value.

Guide cases for pIC50, answers given:
[
  {
    "SMILES_REPR": "CC(C)(C)C1CCN(CC(=O)N2CCC(CNC(=O)c3cc(C(F)(F)F)cc(C(F)(F)F)c3)CC2)CC1",
    "ASSAY_SYSTEM": "human α1H T-type channels (Homo sapiens)",
    "pIC50": 5.49
  },
  {
    "SMILES_REPR": "C[C@H]1CC[C@H](NC(=O)CN2CCC(CNC(=O)c3cc(C(F)(F)F)cc(C(F)(F)F)c3)CC2)CC1",
    "ASSAY_SYSTEM": "human α1H T-type channels (Homo sapiens)",
    "pIC50": 7.00
  },
  {
    "SMILES_REPR": "CN(CCN1CCC(CNC(=O)c2cc(F)cc(C(F)(F)F)c2)CC1)C(=O)NC(C)(C)C",
    "ASSAY_SYSTEM": "human α1H T-type channels (Homo sapiens)",
    "pIC50": 6.04
  }
]

Now for the compound whose pIC50 we want.
IN: GET /values?readout=pIC50&item= CC(C)(C)OC(=O)NCCN1CCC(CNC(=O)c2cccc(Cl)c2)CC1
OUT: 6.10

* * *

What pIC50 was measured for each of the following?
Target: human α1G T-type channels (Homo sapiens, UniProt O43497)
Construct: expressed in transfected cells; host or cells: HEK 293
Sequence (O43497 whole entry): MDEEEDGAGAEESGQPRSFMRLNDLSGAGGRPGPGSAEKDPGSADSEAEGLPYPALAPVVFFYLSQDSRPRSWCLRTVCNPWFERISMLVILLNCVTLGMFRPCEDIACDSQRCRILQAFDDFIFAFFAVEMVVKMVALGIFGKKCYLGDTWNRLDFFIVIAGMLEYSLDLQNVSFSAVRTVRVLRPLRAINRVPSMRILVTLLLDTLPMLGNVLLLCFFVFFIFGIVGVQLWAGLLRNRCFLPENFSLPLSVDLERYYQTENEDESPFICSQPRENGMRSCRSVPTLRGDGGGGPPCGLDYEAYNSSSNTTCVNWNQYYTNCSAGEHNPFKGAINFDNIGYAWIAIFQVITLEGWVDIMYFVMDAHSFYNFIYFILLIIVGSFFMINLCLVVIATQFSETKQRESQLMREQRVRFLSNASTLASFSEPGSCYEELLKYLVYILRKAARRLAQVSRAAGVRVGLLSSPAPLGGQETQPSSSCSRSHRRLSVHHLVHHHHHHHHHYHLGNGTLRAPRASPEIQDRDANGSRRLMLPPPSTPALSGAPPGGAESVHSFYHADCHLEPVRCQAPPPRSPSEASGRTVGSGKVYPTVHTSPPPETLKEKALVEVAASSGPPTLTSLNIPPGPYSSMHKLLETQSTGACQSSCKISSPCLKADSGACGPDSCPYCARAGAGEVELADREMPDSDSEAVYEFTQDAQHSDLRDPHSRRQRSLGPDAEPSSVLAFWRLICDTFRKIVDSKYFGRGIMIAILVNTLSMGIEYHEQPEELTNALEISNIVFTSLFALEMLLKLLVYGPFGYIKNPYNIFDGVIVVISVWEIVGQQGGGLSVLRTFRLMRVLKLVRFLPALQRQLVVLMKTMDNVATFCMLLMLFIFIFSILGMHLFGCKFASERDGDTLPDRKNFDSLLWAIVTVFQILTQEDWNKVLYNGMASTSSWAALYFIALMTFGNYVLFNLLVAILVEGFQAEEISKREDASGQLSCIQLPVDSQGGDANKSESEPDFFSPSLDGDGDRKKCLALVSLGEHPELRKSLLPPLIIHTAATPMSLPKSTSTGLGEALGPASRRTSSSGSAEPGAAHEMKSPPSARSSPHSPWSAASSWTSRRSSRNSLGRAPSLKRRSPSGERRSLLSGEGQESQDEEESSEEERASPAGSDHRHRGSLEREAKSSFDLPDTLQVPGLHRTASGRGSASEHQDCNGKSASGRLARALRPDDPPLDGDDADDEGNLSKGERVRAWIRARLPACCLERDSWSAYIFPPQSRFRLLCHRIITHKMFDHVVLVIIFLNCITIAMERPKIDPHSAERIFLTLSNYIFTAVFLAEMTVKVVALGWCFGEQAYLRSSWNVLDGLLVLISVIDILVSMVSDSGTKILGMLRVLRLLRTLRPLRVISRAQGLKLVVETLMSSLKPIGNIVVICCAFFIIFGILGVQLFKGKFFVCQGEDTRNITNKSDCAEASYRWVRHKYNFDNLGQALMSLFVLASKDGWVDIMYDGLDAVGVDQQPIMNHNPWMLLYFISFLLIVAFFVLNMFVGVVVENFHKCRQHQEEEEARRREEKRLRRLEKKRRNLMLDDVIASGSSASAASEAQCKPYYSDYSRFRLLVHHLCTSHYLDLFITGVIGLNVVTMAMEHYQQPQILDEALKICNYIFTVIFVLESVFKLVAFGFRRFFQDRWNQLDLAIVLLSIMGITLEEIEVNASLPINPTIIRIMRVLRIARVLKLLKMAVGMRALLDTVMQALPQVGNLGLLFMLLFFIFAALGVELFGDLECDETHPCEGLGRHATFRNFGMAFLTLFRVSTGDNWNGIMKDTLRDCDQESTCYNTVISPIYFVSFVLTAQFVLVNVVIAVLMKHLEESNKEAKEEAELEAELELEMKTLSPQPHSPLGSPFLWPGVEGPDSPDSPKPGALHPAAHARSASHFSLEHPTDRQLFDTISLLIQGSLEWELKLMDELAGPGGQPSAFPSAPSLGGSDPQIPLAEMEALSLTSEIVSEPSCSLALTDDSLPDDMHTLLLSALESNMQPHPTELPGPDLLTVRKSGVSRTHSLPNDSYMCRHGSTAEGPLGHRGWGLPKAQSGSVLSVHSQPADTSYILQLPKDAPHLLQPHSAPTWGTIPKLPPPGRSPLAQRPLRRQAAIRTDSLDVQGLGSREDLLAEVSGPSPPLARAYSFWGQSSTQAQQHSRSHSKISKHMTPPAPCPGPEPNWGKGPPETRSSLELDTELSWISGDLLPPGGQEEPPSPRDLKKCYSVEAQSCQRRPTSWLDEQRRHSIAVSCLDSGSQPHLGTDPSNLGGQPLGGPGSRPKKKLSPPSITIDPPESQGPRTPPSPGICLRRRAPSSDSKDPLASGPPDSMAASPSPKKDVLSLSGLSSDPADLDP
Test: T-type calcium channel block, whole cell patch clamp in HEK cells (α1G)
Format: cell-based
Settings: HEK cells, patch clamp, mainly non-inactivated protocol; values above 10 μM shown as 10 μM, below 0.30 μM shown as 0.30 μM; read-out: T-type Calcium Channel Block α1G IC50
pIC50: −log10 of the molar value.

Guide cases for pIC50, answers given:
[
  {
    "SMILES_REPR": "CC(C)(C)OC(=O)NCCN1CCC(CNC(=O)c2cc(Cl)cc(C(F)(F)F)c2)CC1",
    "pIC50": "> 6.52"
  },
  {
    "SMILES_REPR": "CC(C)COC(=O)NCCN1CCC(CNC(=O)c2cc(C(F)(F)F)cc(C(F)(F)F)c2)CC1",
    "pIC50": "> 6.52"
  }
]

Now for the molecule whose pIC50 we want.
IN: Record O=C(NCC1CCN(CC2(NS(=O)(=O)CCC(F)(F)F)CC2)CC1)c1cc(C(F)(F)F)cc(C(F)(F)F)c1 : what is its pIC50 with human α1G T-type channels (Homo sapiens, UniProt O43497)?
OUT: > 6.52

* * *

Target: human α1G T-type channels (Homo sapiens)
Construct: expressed in transfected cells; host or cells: HEK 293
Assay: T-type calcium channel block, whole cell patch clamp in HEK cells (α1G)
Type: cell-based
Settings: HEK cells, patch clamp, mainly non-inactivated protocol; values above 10 μM shown as 10 μM, below 0.30 μM shown as 0.30 μM; read-out: T-type Calcium Channel Block α1G IC50
What pIC50 was measured for each of the following?
Numbers only, as −log10 of the molar value.

[
  {
    "SMILES_REPR": "O=C(NCC1CCN(C[C@@H]2CCCN2S(=O)(=O)C2CC2)CC1)c1cc(F)cc(C(F)(F)F)c1",
    "READOUT_VALUE": 5.66
  }
]

IN: GET /values?readout=pIC50&item= O=C(NCC1CCN(C[C@@H]2CCCN2S(=O)(=O)CCC(F)(F)F)CC1)c1cc(F)cc(C(F)(F)F)c1
OUT: 5.71

* * *

Target: human α1G T-type channels (Homo sapiens)
Construct: expressed in transfected cells; host or cells: HEK 293
Experiment: T-type calcium channel block, whole cell patch clamp in HEK cells (α1G)
Assay type: cell-based
Conditions: HEK cells, patch clamp, mainly non-inactivated protocol; values above 10 μM shown as 10 μM, below 0.30 μM shown as 0.30 μM; read-out: T-type Calcium Channel Block α1G IC50
ENDPOINT_NAME: IC50 (nM)
One number for each entry, in nM.

[
  {
    "MOLECULE": "CC(C)S(=O)(=O)NC(CN1CCC(CC(=O)NC(c2cccc(F)c2)c2cccc(F)c2)CC1)C(C)(C)C (centres unmarked)",
    "READOUT_VALUE": 2030
  },
  {
    "MOLECULE": "O=C(NCC1CCN(CCNS(=O)(=O)C2CC2)CC1)c1cc(C(F)(F)F)cc(C(F)(F)F)c1",
    "READOUT_VALUE": 1740
  },
  {
    "MOLECULE": "CC(C)S(=O)(=O)NCCN1CCC(CNC(=O)c2cccc(Br)c2)CC1",
    "READOUT_VALUE": 870
  }
]

Now for the molecule whose IC50 we want.
IN: GET /values?readout=IC50&item= CC(C)NC(=O)CN1CCC(CNC(=O)c2cc(F)cc(C(F)(F)F)c2)CC1
OUT: 910

* * *

What pIC50 was measured for each of the following?
Target: human α1G T-type channels (Homo sapiens)
Construct: expressed in transfected cells; host or cells: HEK 293
Experiment: T-type calcium channel block, whole cell patch clamp in HEK cells (α1G)
Format: cell-based
Settings: HEK cells, patch clamp, mainly non-inactivated protocol; values above 10 μM shown as 10 μM, below 0.30 μM shown as 0.30 μM; read-out: T-type Calcium Channel Block α1G IC50
pIC50: −log10 of the molar value.

Guide cases for pIC50, answers given:
[
  {
    "COMPOUND": "CC(C)(C)NC(=O)CN1CCC(CNC(=O)c2cc(Cl)cc(Br)c2)CC1 [Compound 381]",
    "pIC50": "> 6.52"
  },
  {
    "COMPOUND": "O=C(NCC1CCN(CCNC(=O)C2CCCC2)CC1)c1cc(F)cc(C(F)(F)F)c1 [Compound 402]",
    "pIC50": 6.27
  }
]

IN: GET /values?readout=pIC50&item= COc1cc(F)cc(C(=O)NCC2CCN(CCNC(=O)C3(C(F)(F)F)CCC3)CC2)c1 [Compound 513]
OUT: > 6.52

* * *

Target: human α1G T-type channels (Homo sapiens, UniProt O43497)
Construct: expressed in transfected cells; host or cells: HEK 293
Experiment: T-type calcium channel block, whole cell patch clamp in HEK cells (α1G)
Type: cell-based
Conditions: HEK cells, patch clamp, mainly non-inactivated protocol; values above 10 μM shown as 10 μM, below 0.30 μM shown as 0.30 μM; read-out: T-type Calcium Channel Block α1G IC50
What IC50 was measured for each of the following?

Please look at the items below and tell me IC50 for each one, in order.
1. CC(C)(C(=O)NCCN1CCC(CNC(=O)c2cc(F)cc(Cl)c2)CC1)C(F)(F)F
2. CCC(C)(C)NC(=O)CN1CCC(CNC(=O)c2cc(C(F)(F)F)cc(C(F)(F)F)c2)CC1
3. CC(C(=O)NC1(C)CCCCC1)N1CCC(CNC(=O)c2cc(F)cc(Cl)c2)CC1 (stereo not drawn)

OUT:
< 300 nM
< 300 nM
< 300 nM

* * *

Molecular target: human α1G T-type channels (Homo sapiens)
Construct: expressed in transfected cells; host or cells: HEK 293
Assay: T-type calcium channel block, whole cell patch clamp in HEK cells (α1G)
Format: cell-based
Details: HEK cells, patch clamp, mainly non-inactivated protocol; values above 10 μM shown as 10 μM, below 0.30 μM shown as 0.30 μM; read-out: T-type Calcium Channel Block α1G IC50
ENDPOINT_NAME: IC50

Guide cases for IC50, answers given:
[
  {
    "SMILES_REPR": "CN(CC(=O)N1CCC(CNC(=O)c2cc(F)cc(C(F)(F)F)c2)CC1)C1CCCCC1",
    "ASSAY_SYSTEM": "human α1G T-type channels (Homo sapiens)",
    "IC50": "2840 nM"
  },
  {
    "SMILES_REPR": "CC(C)(C)NC(=O)CN1CCC(CNC(=O)c2cccc(OC(F)(F)F)c2)CC1",
    "ASSAY_SYSTEM": "human α1G T-type channels (Homo sapiens)",
    "IC50": "< 300 nM"
  },
  {
    "SMILES_REPR": "COc1cc(Cl)cc(C(=O)NCC2CCN(CCNC(=O)C3(C(F)(F)F)CC3)CC2)c1",
    "ASSAY_SYSTEM": "human α1G T-type channels (Homo sapiens)",
    "IC50": "< 300 nM"
  }
]

Please look at the items below and tell me IC50 for each one, in order.
1. CCOC(=O)NC1(CN2CCC(CNC(=O)c3cc(C(F)(F)F)cc(C(F)(F)F)c3)CC2)CCCC1
2. CCCNC(=O)CN1CCC(CNC(=O)c2cc(C)cc(F)c2)CC1
3. CCCNC(=O)CN1CCC(CNC(=O)c2cccc(C(F)(F)F)c2)CC1
4. O=C(Cc1cc(C(F)(F)F)cc(C(F)(F)F)c1)NCC1CCN(CCNC(=O)C2CCCC2)CC1
5. CC(C)(C(=O)NCCN1CCC(CNC(=O)c2cccc(OC(F)(F)F)c2)CC1)C(F)(F)F

OUT:
["< 300 nM", "> 10000 nM", "> 10000 nM", "3360 nM", "< 300 nM"]

Please look at the items below and tell me IC50 for each one, in order.
1. O=C(/C=C/c1cc(Cl)cc(Cl)c1)NCC1CCN(CCNC(=O)CCC(F)(F)F)CC1
2. NC1(CN2CCC(CC(=O)Nc3cc(C(F)(F)F)cc(C(F)(F)F)c3)CC2)CCCC1

OUT:
1: > 10000 nM; 2: 310 nM
